Where these numbers come from: the supplement of paper PMC10567573

B1: BTBD1 (parent)
chain: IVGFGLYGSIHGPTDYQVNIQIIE

Variants of: B1
Test: protein stability index of a GFP-peptide fusion (GPS, HEK-293T) (PSI 1-6); higher = more stable;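 note: lentivirally expressed fusions sorted by FACS into six bins by GFP to DsRed ratio, PSI derived from sequencing read proportions per bin multiplied by bin number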
Conditions: c terminus: a fixed tail appended
Output Yes for protein stability index not less than 3; output No otherwise.

For orientation, consider the following solved cases.
• Y16A = No
• G3P = No
• G8L = No
• G5A = Yes
• I22L = No

Task: Given the entry I23V , answer whether its protein stability index meets or surpasses 3.
Output: No

Task: Check if protein stability index >= 3 (inclusive). Item: I23M
Output: Yes

Task: hey, is protein stability index for this one >= 3? G5T
Output: No

Task: // inclusive: protein stability index at least 3? input: G3R
Output: Yes

Task: Identify whether the reported protein stability index of the following variant is 3 or greater: Q17K
Output: No

Task: Can I20V be said to have protein stability index at or above 3?
Output: No

Task: Would you say G5W shows protein stability index at minimum 3?
Output: No

Task: Textbook exercise: given the entry T14P , state whether its protein stability index is greater than or equal to 3.
Output: Yes

Task: Is protein stability index at least 3? Consider V2G
Output: No

Task: Textbook exercise: given the entry V2K , state whether its protein stability index is greater than or equal to 3.
Output: No

Task: Say whether L6P shows protein stability index of 3 or more.
Output: Yes

Task: Could you verify whether the entry N19G shows protein stability index of no less than 3?
Output: No

Task: Please indicate if the recorded protein stability index for G5Q meets or exceeds 3.
Output: Yes

Task: Determine whether this variant has protein stability index no lower than 3: Q17V
Output: No

Task: For this variant, is measured protein stability index 3 or higher? G8I
Output: No
